Below, each entry is listed alongside its reported MIC.
# Test system: Escherichia coli
# ASSAY_EXPLANATION: Synergistic antibacterial activity against Escherichia coli ATCC 25922 assessed as inhibition of bacterial growth by measuring polymyxin B MIC by checkerboard assay
# Format: functional

Some solved entries appear below for comparison.
SMILES_REPRESENTATION	MIC
CN1CCOc2cc(/C=C/c3cc(C(C)(C)C)[o+]c(C(C)(C)C)c3)ccc21.O=S(=O)([O-])C(F)(F)F	7.8 10^-4 ug/ml
CC(C)(C)c1cc(/C=C/c2ccc(N3CCCC3)cc2)cc(C(C)(C)C)[o+]1.O=S(=O)([O-])C(F)(F)F	31.25 10^-4 ug/ml
CN(C)c1ccc(/C=C/c2cc(C(C)(C)C)[o+]c(C(C)(C)C)c2)cc1.O=S(=O)([O-])C(F)(F)F	7.8 10^-4 ug/ml

Next compound, MIC to be filled in.
Given CCN(CC)c1ccc(/C=C/c2cc(C(C)(C)C)[o+]c(C(C)(C)C)c2)cc1.O=S(=O)([O-])C(F)(F)F , state its recorded MIC. 7.8 10^-4 ug/ml

----------
# System: Escherichia coli
# ASSAY_EXPLANATION: Synergistic antibacterial activity against multi-drug resistant Escherichia coli clinical isolate 1 assessed as inhibition of bacterial growth by measuring polymyxin B MIC by checkerboard assay
# Assay type: functional
ENDPOINT_NAME: MIC
Reply with a number, then the unit it belongs to.

Some solved entries appear below for comparison.
SMILES_REPRESENTATION	READOUT_VALUE
CCN(CC)c1ccc(/C=C/c2cc(C(C)(C)C)[o+]c(C(C)(C)C)c2)cc1.O=S(=O)([O-])C(F)(F)F	0.2 µg/mL
CN1CCOc2cc(/C=C/c3cc(C(C)(C)C)[o+]c(C(C)(C)C)c3)ccc21.O=S(=O)([O-])C(F)(F)F	0.2 µg/mL
CN(C)c1ccc(/C=C/c2cc(C(C)(C)C)[o+]c(C(C)(C)C)c2)cc1.O=S(=O)([O-])C(F)(F)F	0.2 µg/mL

Given CC(C)(C)c1cc(/C=C/c2ccc(N3CCCC3)cc2)cc(C(C)(C)C)[o+]1.O=S(=O)([O-])C(F)(F)F , state its recorded MIC. 0.39 µg/mL

----------
# System: Acinetobacter baumannii
# ASSAY_EXPLANATION: Synergistic antibacterial activity against Acinetobacter baumannii ATCC 19606 assessed as inhibition of bacterial growth by measuring polymyxin B MIC by checkerboard assay
# Format: functional
ENDPOINT_NAME: MIC (ng/mL)
Give the value in ng/mL but do not write ng/mL after it.

Some solved entries appear below for comparison.
SMILES_REPRESENTATION	MIC / ng/mL
CN1CCOc2cc(/C=C/c3cc(C(C)(C)C)[o+]c(C(C)(C)C)c3)ccc21.O=S(=O)([O-])C(F)(F)F	6
CCN(CC)c1ccc(/C=C/c2cc(C(C)(C)C)[o+]c(C(C)(C)C)c2)cc1.O=S(=O)([O-])C(F)(F)F	6
CC(C)(C)c1cc(/C=C/c2ccc(N3CCCC3)cc2)cc(C(C)(C)C)[o+]1.O=S(=O)([O-])C(F)(F)F	2

Next compound, MIC to be filled in.
Reported MIC for Acinetobacter baumannii, given CN(C)c1ccc(/C=C/c2cc(C(C)(C)C)[o+]c(C(C)(C)C)c2)cc1.O=S(=O)([O-])C(F)(F)F ? 6
